src = patent US20240270846A1

Molecular target: T1, biotinylated CD3 epsilon epitope peptide (UniProt P07766 22-48, biotinylated)
T1 chain: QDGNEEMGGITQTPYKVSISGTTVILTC
Assay: SPR (Biacore); biotinylated CD3 epsilon epitope peptide on chip via streptavidin, antibody as analyte
value.kind: Kd (nM)

>  <binder>
NNS6f56 (CE115HA340 with REATRW inserted between Kabat positions 99 and 100), one-arm antibody (antibody, V domains shown) VH: QVQLVESGGGLVQPGRSLRLSCAASGFTFSNAWMHWVRQAPGKGLEWVAQIKDKSNNYATYYAESVKGRFTISRDDSKNSIYLQMNSLKTEDTAVYYCRYVHYAAREATRWYYGVDAWGQGTTVTVSS VL: DIVMTQSPLSLPVTPGEPASISCRSSQSLVHSNRNTYLHWYQQKPGQAPRLLIYKVSNRFSGVPDRFSGSGSGTDFTLKISRVEAEDVGVYYCGQGTQVPYTFGQGTKLEIKR

>  <numeric.value>
21

$$$$
>  <binder>
NNS6f58 (CE115HA340 with SWQVSR inserted between Kabat positions 99 and 100), one-arm antibody (antibody, V domains shown) VH: QVQLVESGGGLVQPGRSLRLSCAASGFTFSNAWMHWVRQAPGKGLEWVAQIKDKSNNYATYYAESVKGRFTISRDDSKNSIYLQMNSLKTEDTAVYYCRYVHYAASWQVSRYYGVDAWGQGTTVTVSS VL: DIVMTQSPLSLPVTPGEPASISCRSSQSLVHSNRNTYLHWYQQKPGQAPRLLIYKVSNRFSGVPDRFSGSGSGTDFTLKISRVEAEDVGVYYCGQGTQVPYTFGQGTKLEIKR

>  <numeric.value>
44

$$$$
>  <binder>
NNS6f73 (CE115HA340 with WVVGVR inserted between Kabat positions 99 and 100), one-arm antibody (antibody, V domains shown) VH: QVQLVESGGGLVQPGRSLRLSCAASGFTFSNAWMHWVRQAPGKGLEWVAQIKDKSNNYATYYAESVKGRFTISRDDSKNSIYLQMNSLKTEDTAVYYCRYVHYAAWVVGVRYYGVDAWGQGTTVTVSS VL: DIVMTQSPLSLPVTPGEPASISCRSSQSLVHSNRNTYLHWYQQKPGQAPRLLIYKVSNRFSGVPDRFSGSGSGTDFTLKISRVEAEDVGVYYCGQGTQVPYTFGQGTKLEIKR

>  <numeric.value>
26

$$$$
>  <binder>
NNS6f72 (CE115HA340 with EGIWWG inserted between Kabat positions 99 and 100), one-arm antibody (antibody, V domains shown) VH: QVQLVESGGGLVQPGRSLRLSCAASGFTFSNAWMHWVRQAPGKGLEWVAQIKDKSNNYATYYAESVKGRFTISRDDSKNSIYLQMNSLKTEDTAVYYCRYVHYAAEGIWWGYYGVDAWGQGTTVTVSS VL: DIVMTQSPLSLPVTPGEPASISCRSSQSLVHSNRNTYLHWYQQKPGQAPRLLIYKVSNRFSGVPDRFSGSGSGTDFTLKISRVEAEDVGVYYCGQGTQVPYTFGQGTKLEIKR

>  <numeric.value>
150

$$$$
>  <binder>
NNS6f67 (CE115HA340 with GLLRAA inserted between Kabat positions 99 and 100), one-arm antibody (antibody, V domains shown) VH: QVQLVESGGGLVQPGRSLRLSCAASGFTFSNAWMHWVRQAPGKGLEWVAQIKDKSNNYATYYAESVKGRFTISRDDSKNSIYLQMNSLKTEDTAVYYCRYVHYAAGLLRAAYYGVDAWGQGTTVTVSS VL: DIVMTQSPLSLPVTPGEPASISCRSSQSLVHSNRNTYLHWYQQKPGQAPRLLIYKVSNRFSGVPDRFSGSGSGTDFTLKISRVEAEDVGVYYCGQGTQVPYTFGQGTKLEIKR

>  <numeric.value>
36

$$$$
